# subject_of_test: 5-HT2C receptor (Rattus norvegicus (Rat), UniProt P08909)
# Sequence (P08909 33-460): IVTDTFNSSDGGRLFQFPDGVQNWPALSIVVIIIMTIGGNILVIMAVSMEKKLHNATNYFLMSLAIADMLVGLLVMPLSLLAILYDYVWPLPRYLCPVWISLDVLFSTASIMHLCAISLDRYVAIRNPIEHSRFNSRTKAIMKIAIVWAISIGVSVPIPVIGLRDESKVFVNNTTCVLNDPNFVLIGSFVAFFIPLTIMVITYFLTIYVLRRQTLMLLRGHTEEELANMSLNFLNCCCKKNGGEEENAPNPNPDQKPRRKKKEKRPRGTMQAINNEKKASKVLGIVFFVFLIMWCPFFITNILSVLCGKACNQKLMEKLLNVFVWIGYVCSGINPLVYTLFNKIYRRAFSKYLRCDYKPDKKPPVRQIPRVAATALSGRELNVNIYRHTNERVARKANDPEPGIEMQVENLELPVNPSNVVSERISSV
# particulars: read-out: 5-HT2C (Ki value); rat cortex membrane, 3H-Mesulergine
pKi: −log10 of the molar value.
Think of 8 as a floor: if pKi stands on it or above, it is yes (1); beneath it, no (0).

Observe how each entry below is paired with its result.
molecule: CN1CCC(N2Cc3ccc(F)cc3CN(Cc3ccc(OC4CC4)cc3)C2=O)CC1
assigned_class: yes (1)
--
molecule: CC(C)CNc1ccc(CN2Cc3ccc(F)cc3CN(C3CCN(C)CC3)C2=O)cc1
assigned_class: no (0)
--
molecule: CN1CCC(N2Cc3cc(F)ccc3CN(Cc3ccc(CC(C)(C)O)cc3)C2=O)CC1
assigned_class: no (0)
--
molecule: CC(C)COc1ccc(CN2Cc3cc(Cl)ccc3CN(C3CCN(C)CC3)C2=O)cc1
assigned_class: no (0)
--
molecule: COc1ccc(CN2Cc3ccc(F)cc3CN(C3CCN(C)CC3)C2=O)cc1
assigned_class: yes (1)
--
molecule: CC(C)COc1ccc(CN2Cc3cc(F)ccc3CN(C3CCN(C)CC3)C2=O)cc1
assigned_class: yes (1)
--
molecule: CN1CCC(N2Cc3cc(F)ccc3CN(Cc3ccc(OC4CC4)cc3)C2=O)CC1
assigned_class: yes (1)
--
molecule: CC(C)COc1ccc(CN2Cc3ccc(F)cc3CN(C3CCN(C)CC3)C2=O)cc1
assigned_class: yes (1)

Q) Is it the case that CC(C)Cc1ccc(CN2Cc3ccc(F)cc3CN(C3CCN(C)CC3)C2=O)cc1 has pKi reaching or exceeding 8?
A) no (0)
